All values here come from patent US8129415B2.

measurement_description: logP by HPLC on reversed-phase column (C 18), EEC Directive 79/831 Annex V.A8
Format: physicochemical
study_conditions: HPLC reversed-phase C 18, 40° C., 0.1% aqueous formic acid and acetonitrile gradient

compound | LogP
Cc1nnnn1C(=NOCc1csc(NC(=O)NC2CC2)n1)c1ccccn1 [compound 26] | 1.61
Cc1nnnn1C(=NOCc1csc(NC(=O)NCCc2cccc(Cl)c2)n1)c1ccccn1 [compound 24] | 2.79
Cc1nc(CON=C(c2ccccn2)n2nnnc2C)cs1 [compound 7] | 1.76
COc1ccncc1C(=NOCc1csc(NC(=O)c2ccccc2)n1)n1nnnc1C [compound 137] | 3.13
COc1ncccc1C(=NOCc1csc(N)n1)n1nnnc1C [compound 154] | 1.24
Cc1nnnn1C(=NOCc1csc(NC(=O)NC2CC2)n1)c1ccc(Cl)nc1 [compound 48] | 1.98
Cc1cccc(C(=NOCc2nsc(N)n2)n2nnnc2C)n1 [compound 96] | 1.59
Cc1nnnn1C(=NOCc1nsc(N)n1)c1ccccn1 [compound 21] | 1.3
Cc1nnnn1C(=NOCc1csc(NC(=O)c2ccco2)n1)c1ccc(Cl)nc1 [compound 69] | 2.46
Cc1cccc(C(=NOCc2csc(NC(=O)c3ccccc3)n2)n2nnnc2C)n1 [compound 83] | 2.78
COc1ncccc1C(=NOCc1cccc(N)n1)n1nnnc1C [compound 152] | 1.03
Cc1cccc(C(=NOCc2noc(-c3ccccc3)n2)n2nnnc2C)n1 [compound 95] | 3.11
Cc1cccc(C(=NOCc2csc(NC(=O)NCCc3ccc(Cl)cc3Cl)n2)n2nnnc2C)n1 [compound 106] | 3.43
COc1ccccc1CNC(=O)Nc1nc(CON=C(c2cccc(C)n2)n2nnnc2C)cs1 [compound 108] | 2.69
C=C(C)C(=O)Nc1nc(CON=C(c2ccccn2)n2nnnc2C)cs1 [compound 3] | 2.06
COCCOCC(=O)Nc1nc(CON=C(c2ccc(Cl)nc2)n2nnnc2C)cs1 [compound 78] | 2.4
Cc1nnnn1C(=NOCc1cccc(N)n1)c1ccccn1 [compound 9] | 0.76
Cc1nnnn1C(=NOCc1nonc1N)c1ccc(Cl)nc1 [compound 33] | 1.88
Cc1nnnn1C(=NOCc1nonc1N)c1ccccn1 [compound 6] | 1.52
COc1cccc(CNC(=O)Nc2nc(CON=C(c3cccc(C)n3)n3nnnc3C)cs2)c1 [compound 104] | 2.59
CCCC(=O)Nc1nc(CON=C(c2cccc(C)n2)n2nnnc2C)cs1 [compound 82] | 2.38
Cc1cccc(C(=NOCc2csc(N)n2)n2nnnc2C)n1 [compound 80] | 1.2
COc1ncccc1C(=NOCc1nc(N)sc1Br)n1nnnc1C [compound 153] | 2.27
Cc1cccc(C(=NOCc2noc(-c3cccc(C(F)(F)F)c3)n2)n2nnnc2C)n1 [compound 86] | 3.67
Cc1nnnn1C(=NOCc1csc(NC(=O)C2CC2)n1)c1ccccn1 [compound 14] | 1.99
CCCC(=O)Nc1cccc(CON=C(c2cccc(C)n2)n2nnnc2C)n1 [compound 90] | 2.7
Cc1ccc(OC(=O)Nc2nc(CON=C(c3ccc(Cl)nc3)n3nnnc3C)cs2)cc1 [compound 76] | 3.48
COC(=O)c1coc(CON=C(c2cccc(C)n2)n2nnnc2C)n1 [compound 98] | 2.01
COc1ccncc1C(=NOCc1csc(NC(=O)CCc2ccccc2)n1)n1nnnc1C [compound 139] | 3.31
Cc1nnnn1C(=NOCc1nc(Cc2ccccc2)no1)c1ccc(Cl)nc1 [compound 49] | 3.09
CCCNC(=O)Nc1nc(CON=C(c2cccc(C)n2)n2nnnc2C)cs1 [compound 103] | 2.17
Cc1nnnn1C(=NOCc1noc(-c2ccco2)n1)c1ccccn1 [compound 11] | 2.38
Cc1nnnn1C(=NOCc1csc(NC(=O)C2CCCC2)n1)c1ccc(Cl)nc1 [compound 58] | 2.97
C=C(C)C(=O)Nc1nc(CON=C(c2cccc(C)n2)n2nnnc2C)cs1 [compound 97] | 2.4
CCCCCC(=O)Nc1nc(CON=C(c2cnccc2OC)n2nnnc2C)cs1 [compound 136] | 3.44
Cc1cccc(C(=NOCc2nonc2N)n2nnnc2C)n1 [compound 84] | 1.94
Cc1nnnn1C(=NOCc1csc(NC(=O)C2CCCCC2)n1)c1ccc(Cl)nc1 [compound 32] | 3.16
